# experiment-notes: Stat Signaling Pathway (AID 446);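 further: ME-180 cervical cancer cells given 40 pM IL-6 alongside compound; SIE-controlled beta-lactamase reporter measured as 460/530 nm FRET emission ratio; on the % scale 0 is the no-effect control and ±100 the full control effect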
# condition-label: ME-180 (cervical carcinoma) SIE beta-lactamase reporter, IL-6 stimulated, 5 h; at 17.2 µM (top of the series) unless noted
Records with an inconclusive call do not appear. Active and inactive are the calls of the source. The call rests on the fitted dose curve; in most records, active means well fitted curve in either direction with a large enough effect (not every such curve was filed as active); inconclusive means small, poorly fitted or top-dose-only effect, or another doubt; inactive means flat fitted curve, though single readings scatter.
Documented activity, negative = inhibition across a set of compounds
assay-endpoint: activity, negative = inhibition

[
  {
    "compound": "c1ccc(-c2nnc3n2N=C(c2ccc4c(c2)OCO4)CS3)nc1",
    "assay-endpoint": "activity, negative = inhibition",
    "result-value": "-6.24% (inactive)"
  },
  {
    "compound": "O=c1c2c3c(sc2nc2n1CCCS2)CCCC3",
    "assay-endpoint": "activity, negative = inhibition",
    "result-value": "1.96% (inactive)"
  },
  {
    "compound": "Cn1ncc(N=Cc2ccccc2O)c1C(=O)N1CCOCC1",
    "assay-endpoint": "activity, negative = inhibition",
    "result-value": "-4.13% (inactive)"
  },
  {
    "compound": "COC(=O)/C(C#N)=C1/SC=C(C)N1c1ccccc1",
    "assay-endpoint": "activity, negative = inhibition",
    "result-value": "4.42% (inactive)"
  },
  {
    "compound": "CN1CCc2c(n(CC(O)CN3C(=O)c4ccccc4S3(=O)=O)c3ccccc23)C1=O (stereo not given)",
    "assay-endpoint": "activity, negative = inhibition",
    "result-value": "-6.51% (inactive)"
  },
  {
    "compound": "CCCCOC(=O)CCc1nc2ccccc2[nH]1",
    "assay-endpoint": "activity, negative = inhibition",
    "result-value": "6.02% (inactive)"
  },
  {
    "compound": "CC(C)C(=O)N1CCN(c2nc(-c3ccccc3)c3c(c2C#N)CC(C)(C)OC3)CC1",
    "assay-endpoint": "activity, negative = inhibition",
    "result-value": "9.79% (inactive)"
  },
  {
    "compound": "Nc1c2c(nc3ccccc13)N(c1ccccc1)CC2",
    "assay-endpoint": "activity, negative = inhibition",
    "result-value": "9.15% (inactive)"
  },
  {
    "compound": "Cc1ccc(NC(=O)CSC2=C(C#N)C(c3ccco3)C3=C(CCCC3=O)N2)cc1 (stereo not given)",
    "assay-endpoint": "activity, negative = inhibition",
    "result-value": "30.5% (inactive)"
  },
  {
    "compound": "C=CCn1c(=S)[nH]c2ccccc2c1=O",
    "assay-endpoint": "activity, negative = inhibition",
    "result-value": "4.87% (inactive)"
  },
  {
    "compound": "Fc1cnc(N2CCOCC2)nc1NCc1ccccc1",
    "assay-endpoint": "activity, negative = inhibition",
    "result-value": "-8.43% (inactive)"
  },
  {
    "compound": "Cc1ccc(NC(=O)c2cc(N3CCOCC3)nc3ccccc23)cc1",
    "assay-endpoint": "activity, negative = inhibition",
    "result-value": "-12.2% (inactive)"
  },
  {
    "compound": "Cc1cc(=O)n2[nH]c(N3C(=O)CCC3=O)nc2n1",
    "assay-endpoint": "activity, negative = inhibition",
    "result-value": "11.6% (inactive)"
  },
  {
    "compound": "CCOC(=O)c1c(CN2CCN(C)CC2)n(C)c2cc(Br)c(OC)cc12",
    "assay-endpoint": "activity, negative = inhibition",
    "result-value": "-13% (inactive)"
  },
  {
    "compound": "Cn1c(=O)c2c(nc(NCCCO)n2Cc2cccc(C(F)(F)F)c2)n(C)c1=O",
    "assay-endpoint": "activity, negative = inhibition",
    "result-value": "-3.72% (inactive)"
  },
  {
    "compound": "CCSc1nnc(NC(=O)C(C)(C(F)(F)F)C(F)(F)F)s1",
    "assay-endpoint": "activity, negative = inhibition",
    "result-value": "-24.8% (inactive)"
  },
  {
    "compound": "CN(C)c1oc(-c2cccs2)nc1C#N",
    "assay-endpoint": "activity, negative = inhibition",
    "result-value": "10.4% (inactive)"
  },
  {
    "compound": "CC[C@]1([C@H]2O[C@@H]([C@@H]3O[C@](O)(CO)[C@@H](C)C[C@H]3C)C[C@H]2C)CC[C@@H]([C@]2(C)CC[C@@]3(C[C@@H](O)[C@@H](C)[C@@H]([C@H](C)[C@H](OC)[C@H](C)C(=O)O)O3)O2)O1",
    "assay-endpoint": "activity, negative = inhibition",
    "result-value": "-3.04% (inactive)"
  },
  {
    "compound": "COc1cccc(C(=O)OCCN(C)C(C)(C)C)c1",
    "assay-endpoint": "activity, negative = inhibition",
    "result-value": "3.74% (inactive)"
  },
  {
    "compound": "CCC(=O)Nc1c(C#N)c2nc3ccccc3nc2n1C1CCCCC1",
    "assay-endpoint": "activity, negative = inhibition",
    "result-value": "20.4% (inactive)"
  },
  {
    "compound": "N#Cc1nc(-c2ccc(F)cc2)oc1N1CCCC1",
    "assay-endpoint": "activity, negative = inhibition",
    "result-value": "-3.18% (inactive)"
  },
  {
    "compound": "CC1(C)Cc2c(c(-c3ccccc3)nc(N3CCCC3)c2C(N)=O)CO1",
    "assay-endpoint": "activity, negative = inhibition",
    "result-value": "0.41% (inactive)"
  },
  {
    "compound": "CC(=O)NCCCCCCNC(C)=O",
    "assay-endpoint": "activity, negative = inhibition",
    "result-value": "2.41% (inactive)"
  },
  {
    "compound": "CC1(C)NC(=O)N(CC(O)COc2cc3ccccc3cc2C(=O)N2CCCCC2)C1=O (stereo not given)",
    "assay-endpoint": "activity, negative = inhibition",
    "result-value": "-3.07% (inactive)"
  },
  {
    "compound": "CCc1ccccc1NC(=O)CSC1=C(C#N)C(c2ccc(O)c(OC)c2)C2=C(CCCC2=O)N1 (stereo not given)",
    "assay-endpoint": "activity, negative = inhibition",
    "result-value": "-5.76% (inactive)"
  },
  {
    "compound": "CSC1=C(C#N)C(c2ccc(C)s2)CC(=O)N1 (stereo not given)",
    "assay-endpoint": "activity, negative = inhibition",
    "result-value": "7.78% (inactive)"
  },
  {
    "compound": "CCSc1nc2sc3c(c2c(=O)n1C1CCCCC1)CCN(C)C3",
    "assay-endpoint": "activity, negative = inhibition",
    "result-value": "24.3% (inactive)"
  },
  {
    "compound": "COCCNC(=O)C(C#N)c1nc2ccccc2nc1N1CCN(Cc2ccc3c(c2)OCO3)CC1 (stereo not given)",
    "assay-endpoint": "activity, negative = inhibition",
    "result-value": "4.46% (inactive)"
  },
  {
    "compound": "CCOC(=O)c1[nH]c2ccc(F)cc2c1NC(=O)CCN1CCSCC1",
    "assay-endpoint": "activity, negative = inhibition",
    "result-value": "0.475% (inactive)"
  },
  {
    "compound": "c1csc(Cc2nn3c(-c4ccncc4)nnc3s2)c1",
    "assay-endpoint": "activity, negative = inhibition",
    "result-value": "-2.56% (inactive)"
  },
  {
    "compound": "COC(=O)c1ccccc1N1C(=O)[C@@H]2C(c3ccc(Br)cc3)=NO[C@@H]2C1=O",
    "assay-endpoint": "activity, negative = inhibition",
    "result-value": "7.92% (inactive)"
  },
  {
    "compound": "CCN(CC)CCNC(=O)c1c(C)oc2cc(Br)c(OC)cc12",
    "assay-endpoint": "activity, negative = inhibition",
    "result-value": "-1.1% (inactive)"
  },
  {
    "compound": "O=C(NC1(C(F)(F)F)C(=O)Nc2c1c(=O)[nH]c(=O)n2-c1ccccc1)c1cccnc1 (stereo not given)",
    "assay-endpoint": "activity, negative = inhibition",
    "result-value": "3.92% (inactive)"
  },
  {
    "compound": "Nc1ccc2c(c1)N1CCN=C1S2",
    "assay-endpoint": "activity, negative = inhibition",
    "result-value": "8.4% (inactive)"
  },
  {
    "compound": "Cc1ccccc1C(=O)c1ccc2c(c1)n(C)c(=O)n2C",
    "assay-endpoint": "activity, negative = inhibition",
    "result-value": "-15.6% (inactive)"
  },
  {
    "compound": "O=C(N(c1ccccc1)c1ccccc1)n1ccnc1",
    "assay-endpoint": "activity, negative = inhibition",
    "result-value": "0.426% (inactive)"
  },
  {
    "compound": "CN1CCC2(CC1)C1CN(C)CC=C1C(C#N)=C(N)C2(C#N)C#N (stereo not given)",
    "assay-endpoint": "activity, negative = inhibition",
    "result-value": "12.8% (inactive)"
  },
  {
    "compound": "O=C(CCN1CCc2ccccc21)c1ccc2c(c1)OCCO2",
    "assay-endpoint": "activity, negative = inhibition",
    "result-value": "2.96% (inactive)"
  },
  {
    "compound": "N/C(=N\\S(=O)(=O)c1ccc(Cl)s1)c1ccccc1",
    "assay-endpoint": "activity, negative = inhibition",
    "result-value": "-9.11% (inactive)"
  },
  {
    "compound": "Cc1cc(C)c(/C=C2/C(=O)Nc3ccccc32)[nH]1",
    "assay-endpoint": "activity, negative = inhibition",
    "result-value": "-25.4% [at 38 µM] (inactive)"
  },
  {
    "compound": "COc1cccc(C(=O)N2CCN(Cc3ccccn3)CC2)c1OC",
    "assay-endpoint": "activity, negative = inhibition",
    "result-value": "7.75% (inactive)"
  },
  {
    "compound": "CCOC(=O)c1c(C)n(C)c2ccc(OC)c(NC(=O)CN3CCC4(CC3)OCCO4)c12",
    "assay-endpoint": "activity, negative = inhibition",
    "result-value": "3.03% (inactive)"
  },
  {
    "compound": "Cc1ccc(N(CN2C(=O)C3CC=CCC3C2=O)C(=O)c2ccco2)cc1Cl (stereo not given)",
    "assay-endpoint": "activity, negative = inhibition",
    "result-value": "-11% (inactive)"
  },
  {
    "compound": "CCC(NC(=O)Nc1ccc(O)cc1)(C(F)(F)F)C(F)(F)F",
    "assay-endpoint": "activity, negative = inhibition",
    "result-value": "-7.48% (inactive)"
  },
  {
    "compound": "COC(=O)C(NC(=O)c1ccccc1)(Nc1nccs1)C(F)(F)F (stereo not given)",
    "assay-endpoint": "activity, negative = inhibition",
    "result-value": "5.62% (inactive)"
  }
]
